Test system: Mus musculus
experiment.summary: Antihyperglycemic activity in mice at a dose of 100 mg/kg
Type: functional
Decide using Decrease alone. Strictly below -30%: true. Equal to or above -30%: false.

Recorded results for 5 compounds are shown here.
[[record]]
compound = "O=S1NC(Cc2coc3ccccc23)=NO1 (stereo not drawn)"
label = "false"

[[record]]
compound = "O=S1NC(Cc2cc3cc(Cl)ccc3o2)=NO1 (stereo not drawn)"
label = "false"

[[record]]
compound = "O=S1NC(Cc2ccc3ccccc3c2)=NO1 (stereo not drawn)"
label = "true"

[[record]]
compound = "O=S1NC(Cc2coc3cc(Cl)ccc23)=NO1 (stereo not drawn)"
label = "false"

[[record]]
compound = "Cc1ccc2occ(CC3=NOS(=O)N3)c2c1 (stereo not drawn)"
label = "true"


Please turn your attention to the following entry.
Task item: API: query returns whether the compound falls strictly under -30% in Decrease. Query: O=S1NC(Cc2cc3ccccc3s2)=NO1 (stereo not drawn)
Reply: true

----------
Test system: Mus musculus
experiment.summary: Antihyperglycemic activity in mice at a dose of 100 mg/kg
Type: functional
Decrease overview

Consider the following illustrative entries.
[[record]]
molecule = "O=S1NC(Cc2coc3c(Cl)cc(Cl)cc23)=NO1 (centres undefined)"
result_value = "-29%"

[[record]]
molecule = "O=S1NC(Cc2cc3cc(F)ccc3o2)=NO1 (centres undefined)"
result_value = "-25%"

[[record]]
molecule = "O=S1NC(Cc2ccc3c(c2)CCC3)=NO1 (centres undefined)"
result_value = "<15%"


Lab note: next molecule to report on.
Task item: Consider the molecule O=S1NC(Cc2ccc(Br)cc2F)=NO1 (centres undefined) and give its measured Decrease.
Reply: -28%

----------
Tested on: Mus musculus
experiment.summary: Antihyperglycemic activity in mice at a dose of 20 mg/kg
Assay type: functional
measured.metric: Decrease

Task item: Consider the molecule O=S1NC(Cc2coc3c(Cl)cc(Cl)cc23)=NO1 (stereo not drawn) and give its measured Decrease.
Reply: <-15%

Task item: Consider the molecule O=S1NC(CC2=C(Cl)c3ccccc3CC2)=NO1 (stereo not drawn) and give its measured Decrease.
Reply: -27%

Task item: Consider the molecule O=S1NC(Cc2cc3cc(F)ccc3s2)=NO1 (stereo not drawn) and give its measured Decrease.
Reply: <-15%

----------
Tested on: Mus musculus
experiment.summary: Antihyperglycemic activity in mice at a dose of 100 mg/kg
Assay type: functional
Decrease overview
Give the number; % is assumed, so skip it.

Consider the following illustrative entries.
[[record]]
compound = "O=S1NC(Cc2csc3ccccc23)=NO1 (configuration not stated)"
result_value = -30

[[record]]
compound = "O=S1NC(Cc2cc3ccc(F)cc3o2)=NO1 (configuration not stated)"
result_value = -18

[[record]]
compound = "CC1(COc2ccc(CC3SC(=O)NC3=O)cc2)CCCCC1 (configuration not stated) [CIGLITAZONE]"
result_value = -29

[[record]]
compound = "O=S1NC(CC2CCc3ccccc3C2)=NO1 (configuration not stated)"
result_value = -22

[[record]]
compound = "O=S1NC(Cc2coc3c(Cl)cccc23)=NO1 (configuration not stated)"
result_value = -54


Task item: Consider the compound O=S1NC(Cc2c[nH]c3ccc(Br)cc23)=NO1 (configuration not stated) and give its measured Decrease.
Reply: -30

Task item: Consider the compound O=S1NC(Cc2c[nH]c3ccccc23)=NO1 (configuration not stated) and give its measured Decrease.
Reply: -22

Task item: Consider the compound O=S1NC(CC2=Cc3ccccc3CC2)=NO1 (configuration not stated) and give its measured Decrease.
Reply: -53

Task item: Consider the compound O=S1NC(Cc2cccc(C(F)(F)F)c2)=NO1 (configuration not stated) and give its measured Decrease.
Reply: -34

Task item: Consider the compound O=S1NC(Cc2cc3cc(Cl)ccc3s2)=NO1 (configuration not stated) and give its measured Decrease.
Reply: -24

Task item: Consider the compound O=S1NC(Cc2cccc(Cl)c2)=NO1 (configuration not stated) and give its measured Decrease.
Reply: -40

Task item: Consider the compound O=S1NC(Cc2cc3cc(Br)ccc3s2)=NO1 (configuration not stated) and give its measured Decrease.
Reply: -29

Task item: Consider the compound O=S1NC(Cc2ccc(OCCc3ccccc3)cc2)=NO1 (configuration not stated) and give its measured Decrease.
Reply: -56
